assay: Binding affinity to dsRNA assessed as inhibition of ethidium bromide RNA intercalation at 20 uM by RNA migration retardation assay
Active and inactive are the calls of the source. The rule behind the calls is not given here.
QUANTITY: Activity

See these solved cases before continuing.
| SMILES CODE | Activity |
| --- | --- |
| Cc1cccc(NC(=O)c2cccc3c(=O)c4ccccc4[nH]c23)c1 | inactive |
| Cc1ccc(NC(=O)c2cccc3c(=O)c4ccccc4[nH]c23)cc1 | inactive |
| O=C(NCc1ccccn1)c1cccc2c(=O)c3ccccc3[nH]c12 | inactive |
| Cc1cccnc1NC(=O)c1cccc2c(=O)c3ccccc3[nH]c12 | Active |
| O=C(Nc1ccncc1)c1cccc2c(=O)c3ccccc3[nH]c12 | Active |

Consider the additional molecule presented here.
// returns reported Activity for input "O=C(Nc1ccccn1)c1cccc2c(=O)c3ccccc3[nH]c12"
Active
